The measurements presented in this section are drawn from patent US8071348B2.

# Target desc: T1, PTP1B/D181A/C215E, catalytic domain (residues 1 to 321) (human, UniProt P18031 1-321)
# T1 construct: range 1-321; Used in vitro (ITC)
# T1 sequence (looked up): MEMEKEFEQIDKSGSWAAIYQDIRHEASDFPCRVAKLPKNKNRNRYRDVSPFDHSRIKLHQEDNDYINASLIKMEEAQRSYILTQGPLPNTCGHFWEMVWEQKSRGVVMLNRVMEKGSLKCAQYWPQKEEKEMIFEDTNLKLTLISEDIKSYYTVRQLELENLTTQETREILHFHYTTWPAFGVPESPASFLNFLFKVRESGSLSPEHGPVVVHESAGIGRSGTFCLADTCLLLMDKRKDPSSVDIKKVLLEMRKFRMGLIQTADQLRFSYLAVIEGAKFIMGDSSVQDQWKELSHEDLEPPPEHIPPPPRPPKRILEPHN
# Assay summary: ITC, 25 C, pH 7.0
# Protocol: All isothermal titration calorimetry experiments were performed using an MCS Isothermal Titration Calorimetry System from Microcal Inc. (Northampton, Mass.). Experiments at pH 7.0 were conducted at 25° C., in 50 mM 3,3-dimethylglutarate buffer containing 1 mM DTT. […] The PTP1B samples used in the isothermal titration calorimetry experiments were dialyzed completely against buffer. […] Protein dilution during titration was determined by titration of buffer into the protein solution. […]
pKd: −log10 of the molar value. [ ]: non-standard residue; d: D form. F2Pmp = N[C@@H](Cc1ccc(C(F)(F)P(=O)(O)O)cc1)C(=O)O
Property: pKd

| Binder | Obs value |
| --- | --- |
| Ac-DADE[F2Pmp]L-NH2 (Synthetic hexapeptide printed in three-letter code; also called F2Pmp-containing peptide; non-hydrolyzable substrate analog) [Ac-Asp-Ala-Asp-Glu-F2Pmp-Leu-NH2] | 5.89 |
